Tested on: K4 kissing-loop RNA reporter
Test: apparent KD of K4 kissing-loop reporter; higher = weaker reporter binding
Conditions: Eterna round: R107; input ligand: FMN 200 uM
assay.metric: apparent KD of K4 kissing-loop reporter

• GUUUUAUAAGAGGAUACCAGUACAAAUAAAGUACAUUAAUAGUAGAGUGAUGUUCUAAAGUACCCUUGGCAGCUUAGAUUAAGUU [ExTheophylB.E] = 147 nM
• GUAGGAUGAGGAGGAGGAAGAAAUACUGAAGGAGCGCAAAGAAAUGCAGGUAGGUCGCGGUAAAGAAGUAUAGUGAUGUUAUAUA [SSArgA.C] = 452 nM
• GUCUAGCUAGCAGGAUAUAGCUGGUAGUGAUGUUACCACUAGAACUCUGCGGAAACGCAGAGUAUCCUAGAAGGGCUAGCUAGAC = 95 nM

---

Test system: K4 kissing-loop RNA reporter;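 further: bound reporter read as fluorescence of individual clusters on recovered sequencing chips by microscopy, with normalized cluster intensities fitted with a binding model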
Test: apparent KD of K4 kissing-loop reporter; higher = weaker reporter binding
Settings: Eterna round: R107; input ligand: arginine 13.2 mM
assay.metric: apparent KD of K4 kissing-loop reporter (nM)

• GUAUCGCUAGGAGGAUAUUUCAAUCCGCCUAUAAUAGGUGGUACGGAGUGAUGUUCCGAUUUACGGAAAGAAGGCCUAGUGAUAC [FMN B 16] = 265
• GAGAACUCUUACGAUACCAGCCGGAGUGAUGUUCCGCGCUUGGACGUAGUAACCCGCACCGGCCCUUGGCAGCGUGGAUCCUAUG [Bibiinor] = 81.2
• UAAGAGGACCACUGCAAGAGUCCUCGAAUACGAGGACCGGUACGGCCGCCACUCGAUAAUUUGCAGUGAUGUUGCAAGUAAGAAU [BrourdMod 5 - Jieux - Same State Tryptophan A] = 167
• UCGGCAAAGUCGGCCGCCACUCCGGGCCCUAUAAAUGGGCGCAGUGAUGUUGCGGCUAGGCCUCUGAGGACCGGGACUUUGUAGA [Gebive] = 91.7
• UGUACCGAGGCAGGAUAUGUCGUCGAAAGACGAAAUGGAGUGAUGUUCCUUAAACUGCGAAAGCAGACAGAAGGGUCUUGGUACU [FmnBS 29 G10+U76] = 178
• AAACAUUGGUCUGAUACCAGCUUGAUCGGUAAACGAUCUACUGGAGUGAUGUUCCUAAAUAGCCCUUGGCAGCAGACCGAUGAAA [MAT - Same State Theophlline B - Mod of Eli - D6] = 172
• GUAUCGCUAGGAGGAUAUUUCAAUUCGCCUAUAAAAGGUGAUACGGAGUGAUGUUCCGAUUUACGGAAAGAAGGCCUAGUGAUAC [FMN B 9] = 259
• UUGAGCCGGACGUAAGUCCGGCUCUGCGAGCGAGGACCGGUACGGCCGCCACUCGGUGCAGUGAUGUUGCAUGGCCGCAAGGCCG [#2 Exclusion - Tryptophan A Attempt #5 (HarryS)] = 233
• CUGUCCUACGAAGGAUAUGCUGAUGGGAUCAAACAGUGAUGUUGUUAUGAACUUAGGCUUAUGUGCGCAGAAGGUCGUGGCGACG [theeternabot_sameState_KL_FMN_B_42] = 396
• UUCGAUCAGUGAUGUUGAUCAAUAGUCGAAGGAGCGCUAUAGAUAGCAGGUAGGUCGCGGCUACAGGGUGUUAAGACACCCAGAA [#13 K4 Arginine A Same State] = 450
• CGCAGUGAUGUUGCGAACAUAAUGCAUUCAGAGGAUAUUCGUUUGGGAAGAAGGCUGAAUCGUUUUUCGAGUGAUGUUUGAGGAA [Same State FMN A GF 18] = 88.2
• GGAGGGAUCUCGGCCGCCACUCAUAAGAAAUGAACCUCAGAAAUAUAGUGAUGUUAUAUAAAGAAGAGGACCGGGAGAAAGGAGG [ExTryptoB.B] = 137
• UUUAUAAUGUCGGCCGCCACUGGAUUAAUAUUUGUAUAAUCUAGUUCUAAGUGAUGUUUAGAGUCCAGGACCGGGACAUUUGUUA [#09 K4 Tryptophan B Exclusion] = 282

Entry source: the supplement of paper PMC9170038
